Entries and their measured EC50, cAMP assay, (-) 1% HSA follow.
- target.system: GLP-1R (UniProt P43220 24-463, limits assumed)
- method: cell-based or functional assay
Positions of bridges follow the written chain, without caps; N, C: chain ends. Non-standard residues stand in square brackets, D forms with d. No end group written: not given here. Ida bridge carrying fatty‑acid side chain of Intermediate A‑1 = not defined here; Aib = CC(C)(N)C(=O)O
metric.name: EC50, cAMP assay, (-) 1% HSA (nM)

binder="Y[Aib]EGTFTSDYSI[Aib]LDKIAQKAFVKWLIAGGPSSGAPPPS-NH2 (linker 20-24 via Ida bridge carrying fatty‑acid side chain of Intermediate A‑1; reading uncertain) [polypeptide compound WX-001]" unit_spec=nM assay_value=0.0596
binder="Y[Aib]EGTFTSDYSI[Aib]LDKKAQKAFVEWLIAGGPSSGAPPPS-NH2 (linker 17-20 via Ida; also: Ida bridge carries fatty-acid side chain of Intermediate A-1) [polypeptide WX-005]" unit_spec=nM assay_value=0.036
binder="Y[Aib]EGTFTSDYSI[Aib]LDKKAQKAFVEWLIAGGPSSGAPPPS-NH2 (bridge 17-20; not fully specified (bridges); also: Glu bridge amino group carries fatty-acid side chain of Intermediate A-1) [polypeptide WX-010]" unit_spec=nM assay_value=0.017
binder="Y[Aib]EGTFTSDYSI[Aib]LDKKAQKEFVEWLIAGGPSSGAPPPS-NH2 (linker 17-20 via Ida bridge carrying fatty‑acid side chain of Intermediate A‑1; reading uncertain) [polypeptide WX-009]" unit_spec=nM assay_value=0.014
